Test system: CAKI-1
Test: NCI tumour cell line growth inhibition, 48 h
Activity calls are given as the source filed them. Rule as the data show it: active = GI50 up to about 1.1 µM and inactive = higher.
Would you mind answering with one of these outcomes? label 1 for active, label 0 for inactive

NC(=O)NO [HYDROXYUREA]; label 0
C=CC(=O)N1C/C(=C\c2ccc(Cl)c(Cl)c2)C(=O)/C(=C/c2ccc(Cl)c(Cl)c2)C1; label 1
CC12CCCCC1=[N+]([O-])C(C)(C)N2O (stereo not given); label 0

Test call, this compound: O=[N+]([O-])c1ccc2c(c1)=[N+]([O-])C1(CCCCC1)[N+]=2[O-]
label 0

Test call, this compound: CCOC1Oc2ccccc2-c2nc(SC)ncc21 (stereo not given)
label 0

Test call, this compound: CN1C(=O)C(=CNc2ccccc2Cl)C(=O)N(C)C1=O
label 0

Test call, this compound: O=[N+]([O-])c1ccc2c(c1)/C(=N/N=C1c3ccccc3Cc3ccccc31)c1cc([N+](=O)[O-])cc([N+](=O)[O-])c1-2
label 0

Test call, this compound: Cc1cc(SCC(=O)c2ccccc2)nc2ccccc12
label 0

Test call, this compound: N=C(N)NS(=O)(=O)c1ccc(NC(=O)c2cccc3c(NNc4ccc(S(=O)(=O)N=C(N)N)cc4)c4ccccc4nc23)cc1
label 0

Test call, this compound: O=C(N/N=C\c1ccc([N+](=O)[O-])cc1)Nc1ccccc1
label 0

* * *

Test system: NCI/ADR-RES
Assay: NCI tumour cell line growth inhibition, 48 h
Active and inactive are the calls of the source. Cut-off read from the data, not from the text of the source: active = GI50 up to about 1.1 µM and inactive = higher.
Would you mind answering with one of these outcomes? YES = active, NO = inactive

COc1cccc(C2ON=C(c3ccccc3)N2C23CC4CC(CC(C4)C2)C3)c1 (centres undefined); NO

Test call, this compound: c1ccc(-c2cc(-c3cc(-c4ccccn4)[nH]n3)n[nH]2)nc1
NO

Test call, this compound: COc1ccc(Cc2nc3cc(C(F)(F)F)ccc3n2CCCN(C)C)cc1
NO

Test call, this compound: Nc1ncnc2c(C3OC(CO)C(O)C3O)n[nH]c12 (centres undefined)
YES

Test call, this compound: CC1=C(C(=O)N[C@@H](CC(C)C)C(=O)O)N2C(=O)[C@@H](NC(=O)[C@@H](N)Cc3ccccc3)[C@H]2SC1
NO

Test call, this compound: C/C(=N/NC(=S)Nc1ccccc1C)c1ccccn1
YES

Test call, this compound: COC(=O)C1OC(SCCN)C(O)C(O)C1O (centres undefined)
NO

Test call, this compound: CN1C(=O)C(=CNc2ccccc2Cl)C(=O)N(C)C1=O
NO

Test call, this compound: COc1cc(/C=C2/C[C@H]3[C@@H]4CCC5=CC(=O)CC[C@]5(C)[C@H]4CC[C@]3(C)NC2=O)cc(OC)c1OC
NO

Test call, this compound: [O-]/[N+](=C\c1ccccc1OC(=S)S)c1ccc(Cl)cc1
NO

Test call, this compound: O=C1C2=Cc3ccccc3OC2(O)Oc2ccc(O)cc21 (centres undefined)
NO

* * *

System: SK-MEL-28
Test: NCI tumour cell line growth inhibition, 48 h
Activity calls are given as the source filed them. Rule as the data show it: active = GI50 up to about 1.1 µM and inactive = higher.
measurement_name: GI50

Cc1ccnc2nc(-c3ccc(F)cc3)cc(O)c12; 77.3 µM (inactive)

Read the entry O=C(CCc1nnc(S)[nH]1)Nc1cc(Cl)c(Cl)cc1Cl and write its reported GI50.
> 100 µM (inactive)

Read the entry CC12CCCCC1=[N+]([O-])C(C)(C)N2O (stereo not given) and write its reported GI50.
> 100 µM (inactive)

Read the entry O=C(N/N=C\c1ccc([N+](=O)[O-])cc1)Nc1ccccc1 and write its reported GI50.
> 100 µM (inactive)

Read the entry CCOC(=O)C1C=C2O[C@@H]3OC4(CCCCC4)O[C@@H]3C2C2C(=O)CCC(=O)[C@@]12C(=O)OC (stereo not given in full) and write its reported GI50.
> 100 µM (inactive)

Read the entry CC(=O)Oc1cc2c[n+](C)c3c4cc(OC(C)=O)c(OC(C)=O)cc4ccc3c2cc1OC(C)=O and write its reported GI50.
> 100 µM (inactive)

Read the entry O=C1CSC(c2ccccc2)N1c1nc2cc3sc(N4C(=O)CSC4c4ccccc4)nc3cc2s1 (stereo not given) and write its reported GI50.
> 100 µM (inactive)

Read the entry COc1ccc2c(C)cc(N/N=C/c3ccc(OC)c4ccccc34)nc2c1 and write its reported GI50.
16.1 µM (inactive)

Read the entry O=C1/C(=C\c2cccc(Oc3ccccc3)c2)S(=O)(=O)C(c2ccccc2)N1c1cc(Cl)ccc1Cl (stereo not given) and write its reported GI50.
17.3 µM (inactive)

Read the entry CN1c2ccccc2S(=O)(=O)n2c(COc3ccccc3)nnc21 and write its reported GI50.
> 100 µM (inactive)

* * *

System: NCI-H460
Experiment: NCI tumour cell line growth inhibition, 48 h
Where a name gives a salt, the structure may show the parent alone. Activity calls are given as the source filed them. Cut-off read from the data, not from the text of the source: active = GI50 up to about 1.1 µM and inactive = higher.
Would you mind answering with one of these outcomes? active, inactive

N=C(N)N/N=C/c1c(-c2ccc(Cl)cc2)nc2n1CCS2; inactive

Test call, this molecule: O=C(O)C1CSC2(CCCN(Cc3ccccc3)C2)N1 (stereo not given)
inactive

Test call, this molecule: O=C1c2c(Br)sc(Br)c2[C@H]2NC(=S)O[C@@H]12
inactive

Test call, this molecule: CC[C@@]1(O)C(=O)OCc2c1cc1n(c2=O)Cc2cc3c(CN(C)C)c(O)ccc3nc2-1 [TOPOTECAN HYDROCHLORIDE]
active

Test call, this molecule: O=C(c1ccccc1)c1c(CC(O)c2ccncc2)n(C(=O)c2ccccc2)c2ccccc12 (stereo not given)
inactive

Test call, this molecule: CC1OC(O[C@H]2C3C=CO[C@@H](OC4OC(CO)C(O)C(O)C4O)C3[C@@]3(COC(=O)/C=C/c4ccc(O)cc4)O[C@@H]23)C(O)C(O)C1O (stereo not given in full)
inactive

Test call, this molecule: O=C(/C=C1\Nc2ccccc2C(=O)N1c1ccccc1Cl)c1ccccc1
inactive

Test call, this molecule: CC(=O)Oc1c(C)c2c(c3ccccc13)OC(C)(C)C2
inactive

Test call, this molecule: CC1=C(Cl)C=CP(=O)(Oc2ccccc2)C1 (stereo not given)
inactive

Test call, this molecule: Cc1cccc2nc(-c3ccccc3)cc(=O)n12
inactive

* * *

System: UO-31
Experiment: NCI tumour cell line growth inhibition, 48 h
The source made the active and inactive calls. No stated cut-off is given here; in the data, active = GI50 up to about 1.1 µM and inactive = higher.
Would you mind answering with one of these outcomes? active, inactive

# count of solved cases: 5
[O-]/[N+](=C\c1ccccc1OC(=S)S)c1ccc(Cl)cc1; inactive
CNC1C(OC2C(OC3C(O)C(O)C(O)C(O)C3O)OC(C)C2(O)CO)OC(CO)C(O)C1O.N=C(N)N.NC(=O)O (stereo not given); inactive
CCC12CC(c3ccccc3)C(C(=O)N1)C(=O)N2 (stereo not given); inactive
COc1ccc(Cc2cc(Cc3ccc(OC)cc3)cc(Cc3ccc(OC)cc3)c2)cc1; inactive
COc1cc2c(c(OC)c1OC)-c1ccc(SC)c(=O)cc1[C@@H](NCc1ccccc1[N+](=O)[O-])CC2; active

Test call, this molecule: CCOC(=O)c1c2cccccc-2nc1Nc1cccc2c(C)ccnc12
inactive

Test call, this molecule: Cc1cc(C)c2c(=O)n(CC(O)CN3CCN(c4ncccn4)CC3)sc2n1 (stereo not given)
inactive

Test call, this molecule: COc1cccc(/C(C=O)=C(\Cl)c2ccc(OC)c(OC)c2)c1
inactive

Test call, this molecule: CC1=CC(C)(C)NN1C1=NS(=O)(=O)c2ccccc2N1C
inactive

Test call, this molecule: C=CC(=O)C#Cc1cnc(OC)nc1OC
inactive

* * *

Test system: IGROV-1
Test: NCI tumour cell line growth inhibition, 48 h
Calls of active or inactive are those of the source. Rule as the data show it: active = GI50 up to about 1.1 µM and inactive = higher.
Would you mind answering with one of these outcomes? True for active, False for inactive

# count of solved cases: 5
COC(=O)C(=O)C(C(=O)C(=O)Nc1ccc([N+](=O)[O-])cc1[N+](=O)[O-])c1nc2ccc([N+](=O)[O-])cc2nc1O (centres undefined); False
N=C(N)NS(=O)(=O)c1ccc(NC(=O)c2cccc3c(NNc4ccc(S(=O)(=O)N=C(N)N)cc4)c4ccccc4nc23)cc1; False
c1ccc2c(c1)N[C@@H]1c3[nH]c4ccccc4c3CC[C@H]21; False
CC1=C(C(=O)NCC(C)O)CC(C(=O)NCC(C)O)=C(C)N1 (centres undefined); False
c1ccc(-c2c3c(nc4c2CC[C@H]4NC2=NCCN2)[C@@H](NC2=NCCN2)CC3)cc1; False

Test call, this molecule: CCN(CCCl)c1cc(CN(C)C)cc(NC(=O)c2ccc(C(=O)Nc3cccc(CN(C)C)c3)cc2)c1
True

Test call, this molecule: COc1cccc(-c2cc(O)c3cc(Cl)cnc3n2)c1
True

Test call, this molecule: CC1(C)OCN(c2ccc(S(N)(=O)=O)cc2)Cn2c1nc1ccccc12
False

Test call, this molecule: CN1Cc2ccccc2C2(COc3ccccc3C2=O)C1 (centres undefined)
False

* * *

Tested on: SK-MEL-2
Assay: NCI tumour cell line growth inhibition, 48 h
Active and inactive are the calls of the source. Rule as the data show it: active = GI50 up to about 1.1 µM and inactive = higher.
As shown below, each of these compounds has a reported GI50 value.

Examples with answers:
Cn1c(=O)oc2cc(C(=S)N3CCCCC3)ccc21; > 100 µM (inactive)
C=CCN1C(=O)NC(=O)/C(=C/c2c3ccccc3cc3ccccc23)C1=O; 19.6 µM (inactive)
CC1=NN(C(=O)CC(=O)Nc2ccc(Cl)cc2)C(=O)C1/N=N\c1ccc(S(=O)(=O)c2ccc(/N=N/C3C(=O)N(C(=O)CC(=O)Nc4ccc(Cl)cc4)N=C3C)cc2)cc1 (centres undefined); 51.9 µM (inactive)
Clc1ccc2ns[s+]c2c1; 9.35 µM (inactive)
O=C(O)c1cc2ccccc2c(/N=N/c2ccc(S(=O)(=O)Nc3ncccn3)cc2)c1O; > 100 µM (inactive)
CC1CCC2(OC1)OC1CC3C4CCC5CC(O)CCC5(C)C4CC(=O)OC3(C)C1C2C (centres undefined); > 100 µM (inactive)
COc1ccccc1NC(=O)CC(=O)N/N=C/c1ccc(N(CCC#N)S(=O)(=O)c2ccccc2)cc1; > 100 µM (inactive)
Cc1ccnc2nc(-c3ccc(F)cc3)cc(O)c12; 57.3 µM (inactive)

Consider now this further compound.
Read the entry CN(C)c1ccc(C(=C(c2ccc(N(C)C)cc2)c2ccc(N(C)C)cc2)c2ccc(N(C)C)cc2)cc1 and write its reported GI50.
12.1 µM (inactive)
